target: UniProtKB P35916; test: VEGFR3 Phospho ELISA Assay; conditions: HMVEC-dLyAD cells, treated for 1 hour, VEGFC stimulated; phospho VEGFR3 relative to Total VEGFR3
Recorded IC50 for the following compounds
attribute measured: IC50 (nM)

NC(=O)C1(c2ccccc2CCc2nc(Nc3ccc(C4CCNCC4)cc3)ncc2C(F)(F)F)CC1 = 26
NC(=O)C1(c2ccccc2CCc2nc(Nc3cccnc3)ncc2Cl)CC1 = 17
CN1CCC(c2ccc(Nc3ncc(C(F)(F)F)c(CCc4ccccc4C4(C(N)=O)CC4)n3)cc2)CC1 = 27
CN1CCC(n2cc(Nc3ncc(Cl)c(CCc4ccccc4C4(C(N)=O)CC4)n3)cn2)CC1 = 5
CCC(C(N)=O)c1ccccc1CCc1nc(Nc2ccc(C3CCNCC3)cc2)ncc1C(F)(F)F (single isomer, unassigned) [Compound 1-1A] = 329
NC(=O)C1(c2ccccc2CCc2nc(Nc3cnn(C4CNC4)c3)ncc2Cl)CC1 = 30
Cn1cc(Nc2ncc(Cl)c(CCc3ccccc3C(C)(C)C(N)=O)n2)cn1 = 23
CN1CCC(c2ccc(Nc3ncc(Cl)c(CCc4ccccc4C4(C(N)=O)CC4)n3)cc2)CC1 = 19

###

target: VEGFR3 (Homo sapiens, UniProt P35916); experiment: VEGFR3 Phospho ELISA Assay; details: HMVEC-dLyAD cells, treated for 1 hour, VEGFC stimulated; phospho VEGFR3 relative to Total VEGFR3
Sequence (P35916 25-1363): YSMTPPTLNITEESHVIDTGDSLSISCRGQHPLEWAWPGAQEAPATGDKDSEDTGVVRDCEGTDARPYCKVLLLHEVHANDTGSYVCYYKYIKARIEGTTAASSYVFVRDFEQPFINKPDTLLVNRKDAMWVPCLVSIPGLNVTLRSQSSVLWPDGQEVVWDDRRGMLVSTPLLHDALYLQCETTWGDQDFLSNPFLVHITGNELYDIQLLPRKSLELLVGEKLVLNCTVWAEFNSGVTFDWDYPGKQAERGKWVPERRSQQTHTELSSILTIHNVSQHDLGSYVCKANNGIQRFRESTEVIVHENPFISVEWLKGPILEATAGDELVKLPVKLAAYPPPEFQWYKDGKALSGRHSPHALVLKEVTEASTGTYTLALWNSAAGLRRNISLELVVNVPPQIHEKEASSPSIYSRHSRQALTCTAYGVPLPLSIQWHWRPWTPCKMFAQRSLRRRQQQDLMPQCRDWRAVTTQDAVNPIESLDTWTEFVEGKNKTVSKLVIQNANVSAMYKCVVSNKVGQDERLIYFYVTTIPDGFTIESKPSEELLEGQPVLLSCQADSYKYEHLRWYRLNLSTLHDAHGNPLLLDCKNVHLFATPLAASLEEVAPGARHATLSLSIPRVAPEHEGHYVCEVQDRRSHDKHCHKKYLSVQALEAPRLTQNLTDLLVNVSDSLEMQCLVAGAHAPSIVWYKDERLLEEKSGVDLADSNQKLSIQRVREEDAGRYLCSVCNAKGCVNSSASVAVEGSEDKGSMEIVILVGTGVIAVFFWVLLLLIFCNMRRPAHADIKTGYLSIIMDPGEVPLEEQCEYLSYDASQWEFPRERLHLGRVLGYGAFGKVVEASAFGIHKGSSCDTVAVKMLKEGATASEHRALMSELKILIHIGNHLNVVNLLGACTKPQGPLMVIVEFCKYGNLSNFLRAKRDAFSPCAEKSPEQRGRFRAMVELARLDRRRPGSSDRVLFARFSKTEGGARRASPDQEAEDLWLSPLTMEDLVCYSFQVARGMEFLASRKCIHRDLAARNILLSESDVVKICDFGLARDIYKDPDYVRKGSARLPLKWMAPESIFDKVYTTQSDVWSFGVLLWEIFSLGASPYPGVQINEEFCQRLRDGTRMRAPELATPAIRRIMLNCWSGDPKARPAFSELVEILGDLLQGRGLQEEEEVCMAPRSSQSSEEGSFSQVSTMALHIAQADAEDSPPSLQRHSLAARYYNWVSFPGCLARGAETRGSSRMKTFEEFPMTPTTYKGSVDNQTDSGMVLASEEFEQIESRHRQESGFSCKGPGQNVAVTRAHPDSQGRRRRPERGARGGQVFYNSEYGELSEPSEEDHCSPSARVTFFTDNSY
pIC50: −log10 of the molar value.
attribute measured: pIC50

NC(=O)C1(c2ccccc2CCc2nc(Nc3ccc(C4CCNCC4)cc3)ncc2Cl)CC1 = 7.42
Cc1cnc(Nc2cnn(C)c2)nc1CCc1ccccc1C(C)C(N)=O (centres unmarked) = 6.28
CC(C(N)=O)c1ccccc1CCc1nc(Nc2cnn(C)c2)ncc1Cl (centres unmarked) = 7.12
CC(NC(=O)OC(C)(C)C)c1ccc(Nc2ncc(Cl)c(CCc3ccccc3C3(C(N)=O)CC3)n2)cc1 (centres unmarked) = 7.60
NC(=O)C1(c2ccccc2CCc2nc(Nc3ccc(C4CCNCC4)nc3)ncc2Cl)CC1 = 7.29

###

Recorded pIC50 for the following compounds
target: VEGFR2 (Homo sapiens); test: VEGFR2 Phospho ELISA Assay; conditions: HUVEC, treated for 1 hour, VEGF stimulated; phospho VEGFR2 relative to Total VEGFR2
Sequence (P35968 20-1356): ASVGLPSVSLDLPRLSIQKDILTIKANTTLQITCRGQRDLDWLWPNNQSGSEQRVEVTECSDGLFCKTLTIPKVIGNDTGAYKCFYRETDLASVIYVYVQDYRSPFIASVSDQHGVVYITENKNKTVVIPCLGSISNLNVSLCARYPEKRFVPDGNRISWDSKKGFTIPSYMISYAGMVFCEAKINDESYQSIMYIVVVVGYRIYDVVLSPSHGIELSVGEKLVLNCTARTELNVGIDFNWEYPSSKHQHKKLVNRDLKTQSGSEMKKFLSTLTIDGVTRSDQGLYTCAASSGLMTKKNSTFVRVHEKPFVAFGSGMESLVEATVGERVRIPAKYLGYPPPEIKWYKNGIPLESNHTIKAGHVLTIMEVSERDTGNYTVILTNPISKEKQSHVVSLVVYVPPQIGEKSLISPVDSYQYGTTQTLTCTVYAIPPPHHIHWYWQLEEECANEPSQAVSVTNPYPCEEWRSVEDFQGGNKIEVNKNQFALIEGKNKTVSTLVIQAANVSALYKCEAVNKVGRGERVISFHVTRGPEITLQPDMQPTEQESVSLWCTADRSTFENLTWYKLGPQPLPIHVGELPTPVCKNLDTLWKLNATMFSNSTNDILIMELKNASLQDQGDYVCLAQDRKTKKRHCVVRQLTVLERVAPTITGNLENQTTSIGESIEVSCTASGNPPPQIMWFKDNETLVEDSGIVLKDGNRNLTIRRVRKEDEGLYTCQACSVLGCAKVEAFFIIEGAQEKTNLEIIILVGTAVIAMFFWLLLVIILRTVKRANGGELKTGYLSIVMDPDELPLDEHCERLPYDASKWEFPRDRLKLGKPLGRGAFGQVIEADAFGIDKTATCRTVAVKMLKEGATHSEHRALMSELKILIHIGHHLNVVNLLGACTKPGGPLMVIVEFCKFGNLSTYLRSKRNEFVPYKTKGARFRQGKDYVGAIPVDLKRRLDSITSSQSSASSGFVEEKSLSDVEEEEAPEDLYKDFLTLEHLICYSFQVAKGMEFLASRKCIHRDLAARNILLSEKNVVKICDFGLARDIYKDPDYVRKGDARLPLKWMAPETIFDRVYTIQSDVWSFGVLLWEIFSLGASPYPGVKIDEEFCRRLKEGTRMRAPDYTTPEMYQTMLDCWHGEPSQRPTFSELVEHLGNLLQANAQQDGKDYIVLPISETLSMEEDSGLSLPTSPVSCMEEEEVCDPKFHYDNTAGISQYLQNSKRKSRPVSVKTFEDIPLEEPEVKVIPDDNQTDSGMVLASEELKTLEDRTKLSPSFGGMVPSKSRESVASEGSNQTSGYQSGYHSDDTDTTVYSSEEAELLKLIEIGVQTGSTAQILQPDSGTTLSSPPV
pIC50: −log10 of the molar value.
attribute measured: pIC50

CN1CCC(c2ccc(Nc3ncc(C(F)(F)F)c(CCc4ccccc4C4(C(N)=O)CC4)n3)cc2)CC1 = 5.75
NC(=O)C1(c2ccccc2CCc2nc(Nc3ccc(C4CCNCC4)nc3)ncc2Cl)CC1 = 5.70
Cn1cc(Nc2ncc(Cl)c(CCc3ccccc3C(C)(C)C(N)=O)n2)cn1 = 6.43
NC(=O)C1(c2ccccc2CCc2nc(Nc3cnn(C4CCNC4)c3)ncc2Cl)CC1 (stereo not shown) = 5.76

###

target: VEGFR3 cytoplasmic domain (Homo sapiens); assay: VEGFR3 Biochemical Assay (AlphaScreen); settings: GST-fusion enzyme, 500 μM ATP, 90 minutes at 30 degree Celsius (modified form in some cases: Hexa-His-fusion enzyme, 1 μM ATP); read-out: IC50
pIC50: −log10 of the molar value.
Assign Yes to entries whose pIC50 meets or exceeds 8; assign No to the rest.

NC(=O)C1(c2cccc(CCc3nc(Nc4cnn(C5CCNCC5)c4)ncc3C(F)(F)F)c2)CC1 = No
COc1ccc(Nc2ncc(C(F)(F)F)c(CCc3ccccc3C(C)C(N)=O)n2)cn1 (centres unmarked) = No
NC(=O)C1(c2ccccc2CCc2nc(Nc3cnn(CCO)c3)ncc2Cl)CC1 = Yes
Cn1cc(Nc2ncc(C(F)(F)F)c(CCc3ccccc3C3(C(N)=O)CC3)n2)cn1 = Yes
CC(C(N)=O)c1ccccc1CCc1nc(Nc2ccc(C3CCN(C)CC3)nc2)ncc1Cl (centres unmarked) = No

###

Recorded IC50 for the following compounds
target: VEGFR3 cytoplasmic domain (Homo sapiens); test: VEGFR3 Biochemical Assay (AlphaScreen); details: GST-fusion enzyme, 500 μM ATP, 90 minutes at 30 degree Celsius (modified form in some cases: Hexa-His-fusion enzyme, 1 μM ATP); read-out: IC50
attribute measured: IC50 (nM)

CC(C(N)=O)c1ccccc1CCc1nc(Nc2cnn(C)c2)ncc1Cl (centres unmarked) = 16
CN1CCC(n2cc(Nc3ncc(Cl)c(CCc4ccccc4C4(C(N)=O)CC4)n3)cn2)CC1 = 3
Cn1cc(Nc2ncc(Cl)c(CCc3ccccc3C(C)(C)C(N)=O)n2)cn1 = 3
Cc1cnc(Nc2ccc(C(C)N)cc2)nc1CCc1ccccc1C1(C(N)=O)CC1 (centres unmarked) = 46
CC(C(N)=O)c1ccccc1CCc1nc(Nc2ccnnc2)ncc1Cl (centres unmarked) = 154

###

molecular target: VEGFR3 cytoplasmic domain (Homo sapiens, UniProt P35916); test: VEGFR3 Biochemical Assay (AlphaScreen); conditions: GST-fusion enzyme, 500 μM ATP, 90 minutes at 30 degree Celsius (modified form in some cases: Hexa-His-fusion enzyme, 1 μM ATP); read-out: IC50
Sequence (P35916 798-1298 isoform P35916-1): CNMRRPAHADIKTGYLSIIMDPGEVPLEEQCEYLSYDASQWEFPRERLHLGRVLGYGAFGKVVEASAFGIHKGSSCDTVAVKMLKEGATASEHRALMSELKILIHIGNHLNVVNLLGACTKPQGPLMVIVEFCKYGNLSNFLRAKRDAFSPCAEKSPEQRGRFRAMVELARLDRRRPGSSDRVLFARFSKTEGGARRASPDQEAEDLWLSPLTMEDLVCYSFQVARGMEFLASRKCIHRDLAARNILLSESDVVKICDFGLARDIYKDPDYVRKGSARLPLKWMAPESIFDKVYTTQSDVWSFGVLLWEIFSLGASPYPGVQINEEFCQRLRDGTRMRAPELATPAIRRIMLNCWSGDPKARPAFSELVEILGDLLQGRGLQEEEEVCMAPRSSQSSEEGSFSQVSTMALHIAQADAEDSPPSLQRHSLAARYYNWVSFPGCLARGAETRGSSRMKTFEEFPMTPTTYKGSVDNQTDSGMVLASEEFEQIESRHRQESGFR
pIC50: −log10 of the molar value.
attribute measured: pIC50

CC(N)c1ccc(Nc2ncc(Cl)c(CCc3ccccc3C3(C(N)=O)CC3)n2)cn1 (stereo not shown) = 7.22
CN1CCC(c2ccc(Nc3ncc(C(F)(F)F)c(CCc4ccccc4C4(C(N)=O)CC4)n3)cn2)CC1 = 7.20
CC(C(N)=O)c1ccccc1CCc1nc(Nc2ccc(C3CCNCC3)nc2)ncc1C(F)(F)F (stereo not shown) = 6.31
Cc1n[nH]cc1Nc1ncc(Cl)c(CCc2ccccc2C2(C(N)=O)CC2)n1 = 8.15

###

molecular target: VEGFR3 cytoplasmic domain (Homo sapiens, UniProt P35916); assay: VEGFR3 Biochemical Assay (AlphaScreen); conditions: GST-fusion enzyme, 500 μM ATP, 90 minutes at 30 degree Celsius (modified form in some cases: Hexa-His-fusion enzyme, 1 μM ATP); read-out: IC50
pIC50: −log10 of the molar value.
Recorded pIC50 for the following compounds
attribute measured: pIC50

COc1ccc(Nc2ncc(C(F)(F)F)c(CCc3ccccc3C3(C(N)=O)CC3)n2)cn1 = 8.10
CN1CCC(n2cc(Nc3ncc(Cl)c(CCc4ccccc4C4(C(N)=O)CC4)n3)cn2)C1 (centres unmarked) = 8.15
NC(=O)C1(c2ccccc2CCc2nc(Nc3ccnnc3)ncc2Cl)CC1 = 7.70
CC(C(N)=O)c1ccccc1CCc1nc(Nc2cncnc2)ncc1Cl (centres unmarked) = 6.80
NC(=O)C1(c2ccccc2CCc2nc(Nc3ccc(C(F)(F)F)nc3)ncc2Cl)CC1 = 7.59
NC(=O)C1(c2ccccc2CCc2nc(Nc3cnn(C(F)F)c3)ncc2Cl)CC1 = 8.15
Cc1cnc(Nc2cnn(C)c2)nc1CCc1ccccc1C(C)C(N)=O (single isomer, unassigned) [Compound 51-2A] = 7.39
Cc1ccc(Nc2ncc(Cl)c(CCc3ccccc3C(C)C(N)=O)n2)cn1 (centres unmarked) = 7.35

###

Recorded pIC50 for the following compounds
target: VEGFR2 (Homo sapiens); assay: VEGFR2 Phospho ELISA Assay; details: HUVEC, treated for 1 hour, VEGF stimulated; phospho VEGFR2 relative to Total VEGFR2
pIC50: −log10 of the molar value.
attribute measured: pIC50

NC(=O)C1(c2ccccc2CCc2nc(Nc3ccc(C4CCNCC4)cc3)ncc2C(F)(F)F)CC1 [Compound 2] = 6.55
CC(N)c1ccc(Nc2ncc(Cl)c(CCc3ccccc3C3(C(N)=O)CC3)n2)cc1 (stereo not shown) [Compound 24A] = 6.68
CN1CCC(n2cc(Nc3ncc(Cl)c(CCc4ccccc4C4(C(N)=O)CC4)n3)cn2)C1 (stereo not shown) [Compound 21] = 7.14
NC(=O)C1(c2ccccc2CCc2nc(Nc3ccc(C4CCNCC4)nc3)ncc2C(F)(F)F)CC1 [Compound 68] = 5.39
CC(C(N)=O)c1ccccc1CCc1nc(Nc2cnn(C3CCN(C)CC3)c2)ncc1C(F)(F)F (single isomer, unassigned) [Compound 57-1A] = 6.29
NC(=O)C1(c2ccccc2CCc2nc(Nc3ccc(C4CCNCC4)nc3)ncc2C(F)(F)F)CC1 [Compound 5] = 5.39

###

target: VEGFR3 (Homo sapiens, UniProt P35916); assay: VEGFR3 Phospho ELISA Assay; details: HMVEC-dLyAD cells, treated for 1 hour, VEGFC stimulated; phospho VEGFR3 relative to Total VEGFR3
pIC50: −log10 of the molar value.
Recorded pIC50 for the following molecules
attribute measured: pIC50

CCC(C(N)=O)c1ccccc1CCc1nc(Nc2ccc(C3CCNCC3)cc2)ncc1C(F)(F)F (single isomer, unassigned) [Compound 1-2A] = 6.50
NC(=O)C1(c2ccccc2CCc2nc(Nc3ccc(C4CCNCC4)nc3)ncc2C(F)(F)F)CC1 [Compound 68] = 7.29
CC(C(N)=O)c1ccccc1CCc1nc(Nc2cn[nH]c2)ncc1Cl (stereo not drawn) [Compound 35] = 7.19
NC(=O)C1(c2ccccc2CCc2nc(Nc3cnn(C4CCNCC4)c3)ncc2Cl)CC1 [Compound 17] = 7.21
COc1ccc(Nc2ncc(C(F)(F)F)c(CCc3ccccc3C3(C(N)=O)CC3)n2)cn1 [Compound 64] = 6.40
CN1CCC(n2cc(Nc3ncc(Cl)c(CCc4ccccc4C4(C(N)=O)CC4)n3)cn2)C1 (stereo not drawn) [Compound 21] = 7.85
NC(=O)C1(c2ccccc2CCc2nc(Nc3ccc(C4CCNCC4)nc3)ncc2C(F)(F)F)CC1 [Compound 5] = 7.29
CC(C(N)=O)c1ccccc1CCc1nc(Nc2cnn(C3CCN(C)CC3)c2)ncc1Cl (stereo not drawn) [Compound 44] = 7.28
NC(=O)C1(c2ccccc2CCc2nc(Nc3ccc(C(F)(F)F)nc3)ncc2Cl)CC1 [Compound 9] = 7.12
NC(=O)C1(c2ccccc2CCc2nc(Nc3cnn(C4CCNC4)c3)ncc2Cl)CC1 (stereo not drawn) [Compound 20] = 7.42
Cn1cc(Nc2ncc(Cl)c(CCc3ccccc3C3(C(N)=O)CC3)n2)cn1 [Compound 13] = 8.05
NC(=O)C1(c2ccccc2CCc2nc(Nc3cn[nH]c3)ncc2Cl)CC1 [Compound 19] = 7.96
